Tested on: GRK2;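 further: KINOMEscan kinase panel screen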
Construct: gene ADRBK1
Reported Conditions: concentration: 1 μM, replicates: in singlicate; n = 1
Quick reference: %Inh of the listed items.
Respond with the bare value in %.

Below, 3 compounds whose answers are already recorded.
Compound	Measure Unit	%Inh
O=C(Nc1n[nH]c2cc(-c3ccoc3)ccc12)C1CC1 [SB-738481]	%	0
Cc1ccc(F)c(C(=O)Nc2cccc(-c3nn4ccccc4c3-c3ccnc(Nc4cccc(F)c4)n3)c2)c1F [GSK361061]	%	0
Nc1n[nH]c2cnc(-c3ccccc3)cc12 [SB-642124]	%	0

Give %Inh (GRK2) of the following compound: `COc1cccc(C(=O)Nc2cccc(Oc3ccc4nc(NC(=O)C5CC5)cn4n3)c2)c1`
0

What do you get for COc1ccc(Nc2nccc(N3CCC(NC(=O)Nc4cccc(OC)c4)C3)n2)cc1 (stereo not drawn) [GSK1379742] ?
0

What do you get for CSc1cccc2c(-c3ccncn3)c(-c3ccc(F)cc3)nn12 [GW514786] ?
7

What do you get for COC(=O)Nc1nc2cc(Oc3ccc(NC(=O)Nc4cc(C(F)(F)F)ccc4F)cn3)ccc2[nH]1.Cl.Cl [GW681170] ?
0

What do you get for `CC(=O)Nc1nc2cnc(Nc3cc(NC(=O)c4cccc(C5(C#N)CC5)c4Cl)ccc3C)nc2s1` ?
0

What do you get for CCn1c(-c2nonc2N)nc2c(C#CC(C)(C)O)nc(OC[C@H](N)c3ccccc3)cc21 [GSK943949] ?
11

What do you get for O=C(Nc1cccc(-c2nn3ccccc3c2-c2ccnc(Nc3cccc(F)c3)n2)c1)c1c(F)ccc(F)c1Cl [GSK357952] ?
0

What do you get for CNC(=O)c1ccccc1Nc1nc(Nc2ccc(N3CCOCC3)cc2)ncc1Cl.Cl [GSK1576028] ?
13

What do you get for Cn1cc(-c2ccc3c(c2)CCN3C(=O)Cc2cccc(Cl)c2)c2c(N)ncnc21 [GSK2606590] ?
0

What do you get for Cc1ccc(C)c(NC(=O)NC2CCN(c3ccnc(Nc4ccc(F)cc4)n3)C2)c1 (stereo not drawn) [GSK1379720] ?
0

What do you get for O=C(NC1CCN(c2ccnc(Nc3ccc(F)cc3)n2)C1)c1cc2ccccc2s1 (stereo not drawn) [GSK1379716] ?
14

What do you get for NCCCC(NC(=O)c1cc(Br)c(-c2ccnc3[nH]ccc23)s1)c1ccccc1.O=C(O)C(F)(F)F.O=C(O)C(F)(F)F (stereo not drawn) [GSK1287544] ?
75

Data credit: paper PMC5540273
